system: Human cGAS amino acids 155-522 (Homo sapiens (Human), UniProt Q8N884)
Sequence (Q8N884 157-522): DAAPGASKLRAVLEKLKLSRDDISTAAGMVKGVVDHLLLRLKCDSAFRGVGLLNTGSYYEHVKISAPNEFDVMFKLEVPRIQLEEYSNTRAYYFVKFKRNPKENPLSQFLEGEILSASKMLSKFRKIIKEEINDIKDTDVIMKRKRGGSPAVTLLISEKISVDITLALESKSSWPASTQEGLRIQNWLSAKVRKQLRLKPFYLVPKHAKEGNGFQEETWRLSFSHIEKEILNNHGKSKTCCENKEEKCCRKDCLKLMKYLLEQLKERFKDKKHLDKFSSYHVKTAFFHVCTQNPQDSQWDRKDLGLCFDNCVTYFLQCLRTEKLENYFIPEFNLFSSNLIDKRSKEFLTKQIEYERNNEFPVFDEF
test_details: cGAS biochemical activity assay (ATP remaining, Kinase-Glo Max luminescence)
test_context: human cGAS 155-522, ATP remaining (Kinase-Glo Max); read-out: cGAS IC50
Record form. Attribute: IC50. Fill in for each entry.

molecule: Cc1[nH]c2c(-c3ccccc3)c(C(F)(F)F)nn2c(=O)c1C(=O)Nc1ncco1 [Compound A1074]
IC50: < 20 µM

molecule: Cc1[nH]c2c(-c3ccccc3)c(C(F)(F)F)nn2c(=O)c1C(=O)N[C@H]1CCNC1 [Compound A1035]
IC50: > 250 µM

molecule: Cc1[nH]c2c(-c3ccccc3)c(C(F)(F)F)nn2c(=O)c1-c1nnc(N2CCCC(N)C2)o1 (stereo not shown) [Compound D1084]
IC50: < 20 µM

molecule: Cc1[nH]c2c(-c3ccccc3)c(C(F)(F)F)nn2c(=O)c1C(=O)N[C@@H]1CCCC[C@H]1N [Compound A1014]
IC50: 20 to 250 µM

molecule: COc1cnccc1NC(=O)c1c(C)[nH]c2c(-c3ccccc3)c(C(F)(F)F)nn2c1=O [Compound A1099]
IC50: 20 to 250 µM

molecule: CC(=O)N1CCC(c2nnc(-c3c(C)[nH]c4c(-c5ccccc5)c(C(F)(F)F)nn4c3=O)o2)CC1 [Compound D1054]
IC50: 20 to 250 µM

// next item, IC50 requested
Short answer for COc1cncc(NC(=O)c2c(C)[nH]c3c(-c4ccccc4)c(C(F)(F)F)nn3c2=O)n1 [Compound A1098] : IC50 was 20 to 250 µM

* * *

Record form. Attribute: IC50. Fill in for each entry.
system: Human cGAS amino acids 155-522 (Homo sapiens (Human))
test_details: cGAS biochemical activity assay (ATP remaining, Kinase-Glo Max luminescence)
test_context: human cGAS 155-522, ATP remaining (Kinase-Glo Max); read-out: cGAS IC50

Field: example entries. Status: answers known.
compound: Cc1[nH]c2c(-c3ccccc3)c(C(F)(F)F)nn2c(=O)c1C(=O)N[C@H]1CCCC[C@H]1O [Compound A1092]
system: Human cGAS amino acids 155-522 (Homo sapiens (Human))
readout_type: IC50
measured: 20 to 250 µM
--
compound: Cc1[nH]c2c(-c3ccccc3)c(C(F)(F)F)nn2c(=O)c1-c1nnc(C2CCCO2)o1 (stereo not shown) [Compound D1012]
system: Human cGAS amino acids 155-522 (Homo sapiens (Human))
readout_type: IC50
measured: < 20 µM
--
compound: Cc1[nH]c2c(-c3ccccc3)c(C(F)(F)F)nn2c(=O)c1-c1cccnc1 [Compound C1003]
system: Human cGAS amino acids 155-522 (Homo sapiens (Human))
readout_type: IC50
measured: 20 to 250 µM

Short answer for Cc1[nH]c2c(C3CCCC3)c(C(F)(F)F)nn2c(=O)c1-c1ccccc1 [Compound C1266] : IC50 was > 250 µM

* * *

system: Human cGAS amino acids 155-522 (Homo sapiens (Human))
test_details: cGAS biochemical activity assay (ATP remaining, Kinase-Glo Max luminescence)
test_context: human cGAS 155-522, ATP remaining (Kinase-Glo Max); read-out: cGAS IC50
readout_type: IC50

molecule: COc1cccn2cc(-c3c(C)[nH]c4c(-c5ccccc5)c(C(F)(F)F)nn4c3=O)nc12 [Compound C1044]
system: Human cGAS amino acids 155-522 (Homo sapiens (Human))
IC50: < 20 µM

Look at each molecule and report its IC50.
1. CO[C@@H]1CCCC1c1nnc(-c2c(C)[nH]c3c(-c4ccccc4)c(C(F)(F)F)nn3c2=O)o1 (stereo partly shown) [D1049 Iso-2]
2. Cc1[nH]c2c(-c3ccccc3)c(C(F)(F)F)nn2c(=O)c1-c1ncc(C2CCCC2)o1 [Compound C1010]
3. COc1ccnc(NC(=O)c2c(C)[nH]c3c(-c4ccccc4)c(C(F)(F)F)nn3c2=O)c1 [Compound A1063]
4. COc1ccc(Cl)c2oc(-c3c(C)[nH]c4c(-c5ccccc5)c(C#N)nn4c3=O)nc12 [Compound C1205]
5. Cc1[nH]c2c(-c3ccccc3)c(C(F)(F)F)nn2c(=O)c1Cc1nnc(C2CCCC2)o1 [Compound D1034]
6. Cc1[nH]c2c(-c3ccccc3)c(C(F)(F)F)nn2c(=O)c1C(=O)Nc1ccc(S(C)(=O)=O)cn1 [Compound A1108]

Response:
< 20 µM
> 250 µM
< 20 µM
< 20 µM
20 to 250 µM
20 to 250 µM
